Test system: 565726-208-R1-J5-PDC complex spheroids, growth inhibition;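 note: spheroids exposed to compounds for seven days before readout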
Experiment: Anticancer human tumor 565726-208-R1-J5-PDC patient-derived pancreatic adenocarcinoma cell line growth inhibition [RAS]
Details: second compound 0.0316 µM; first compound 3.16 µM; active compounds read low
We'd kindly ask you to apply these viability, T/C classes: one = under 60%, two = from 60% up to 80%, three = 80% and over

stdin: // bin(item) where item = NC1c2ccccc2OC12CCN(c1cnc3c(N4CCCc5ncccc54)n[nH]c3n1)CC2 (stereo unspecified) + C#Cc1c(F)ccc2cc(O)cc(-c3ncc4c(N5CC6CCC(C5)N6)nc(OCC56CCCN5CC(F)C6)nc4c3F)c12
stdout: two

stdin: // bin(item) where item = CC(=O)OC12COC1CC(O)C1(C)C(=O)C(O)C3=C(C)C(OC(=O)C(O)C(NC(=O)OC(C)(C)C)c4ccccc4)CC(O)(C(OC(=O)c4ccccc4)C21)C3(C)C (stereo unspecified) + C=CC(=O)N1CCN(c2nc(OCC3CCCN3C)nc3c(F)c(-c4nc(N)cc(C)c4C(F)(F)F)c(Cl)cc23)C(C)C1
stdout: one

stdin: // bin(item) where item = NC1c2ccccc2OC12CCN(c1cnc3c(N4CCCc5ncccc54)n[nH]c3n1)CC2 (stereo unspecified) + C=CC(=O)N1CCN(c2nc(OCC3CCCN3C)nc3c(F)c(-c4nc(N)cc(C)c4C(F)(F)F)c(Cl)cc23)C(C)C1
stdout: three

stdin: // bin(item) where item = CCC(CC)c1cc(NC2CCC(N)C2)n2nccc2n1 (stereo unspecified) + C#Cc1c(F)ccc2cc(O)cc(-c3ncc4c(N5CC6CCC(C5)N6)nc(OCC56CCCN5CC(F)C6)nc4c3F)c12
stdout: one

stdin: // bin(item) where item = CC(=O)OC12COC1CC(O)C1(C)C(=O)C(O)C3=C(C)C(OC(=O)C(O)C(NC(=O)OC(C)(C)C)c4ccccc4)CC(O)(C(OC(=O)c4ccccc4)C21)C3(C)C (stereo unspecified) + C#Cc1c(F)ccc2cc(O)cc(-c3ncc4c(N5CC6CCC(C5)N6)nc(OCC56CCCN5CC(F)C6)nc4c3F)c12
stdout: one
